The compounds listed here are annotated with their pIC50.
# Test system: Leishmania donovani
# methodSummary: GSK_TCAKS: pIC50 Leishmania donovani Imaging: Infected Macrophages. Assay plates (384-well) were prepared by adding 250nL of compound to each well. For single shot assay, the final compound concentration was 5 uM. […] Automated image analysis was performed with a script developed on Acapella High Content Imaging and Analysis Software (PerkinElmer). Output: Percent of infected macrophage cells were reported for each well.
# Assay type: functional, organism-based, Homo sapiens
# appliedConditions: THP-1
Please treat pIC50 as minus the base-10 logarithm of the molar concentration.

Would you please look over these solved cases?
What value of pIC50 has been recorded for this entry: Cc1cc(NC(=O)C2CCCCC2)n(-c2nc3c(c(=O)[nH]2)CCC3)n1
5.30

What value of pIC50 has been recorded for this entry: N#Cc1ccccc1S(=O)(=O)N1CCN(C(=O)CNC(=O)c2ccc3c(c2)OCO3)CC1
5.30

We next turn to a different compound, shown below.
What value of pIC50 has been recorded for this entry: COc1ncc(-c2ccc3ncnc(N4CCOCC4)c3c2)cc1NS(C)(=O)=O
5.30
